- TARGET_SYSTEM: hENPP2 (UniProtKB/SwissProt Sequence ref Q13822) (Homo sapiens (Human), UniProt Q13822)
- ASSAY_PROCEDURE: FS3 hENPP2 assay (fluorogenic substrate FS-3)
- Format: biochemical
- RUN_CONDITIONS: hENPP2, FS-3 as substrate
MEASURED_ENDPOINT: IC50

[[record]]
molecule = "CCc1nc2ccc(N3CCC(C(=O)O)CC3)nn2c1N(C)c1nc(-c2ccc(F)cc2)cs1"
assay_value = "0.01 to 25 nM"

[[record]]
molecule = "CCc1nc2ccc(N3CCC(O)C3)nn2c1N(C)c1nc(-c2ccc(F)cc2)cs1 (stereo not drawn)"
assay_value = "0.01 to 25 nM"


// below: IC50 requested for another molecule
The molecule listed as CCc1nc2ccc(N3CCN(CCCO)CC3)nn2c1N(C)c1nc(-c2ccc(F)cc2)cs1 shows IC50 equal to 0.01 to 25 nM

====

- TARGET_SYSTEM: hENPP2 (UniProtKB/SwissProt Sequence ref Q13822) (Homo sapiens (Human), UniProt Q13822)
- ASSAY_PROCEDURE: LPC hENPP2 assay (choline release, LPC as substrate)
- Type: biochemical
pIC50: −log10 of the molar value.
MEASURED_ENDPOINT: pIC50

Some molecules with recorded pIC50:
[[record]]
molecule = "CCc1nc2ccc(N3CCC(O)C3)nn2c1N(C)c1nc(-c2ccc(F)cc2)cs1 (stereo not drawn)"
measured_endpoint = "pIC50"
assay_value = "< 6.00"

[[record]]
molecule = "CCc1nc2ccc(N3CCC4(CCOCC4)C3)nn2c1N(C)c1nc(-c2ccc(F)cc2)cs1"
measured_endpoint = "pIC50"
assay_value = "< 6.00"

[[record]]
molecule = "CCc1nc2cnc(N3CCN(CC(=O)N4CC(O)C4)CC3)cn2c1N(C)c1nccc(-c2ccc(F)cc2C#N)n1"
measured_endpoint = "pIC50"
assay_value = "< 6.00"

[[record]]
molecule = "CCc1nc2ccc(N3CCC(CO)C3)nn2c1N(C)c1nc(-c2ccc(F)cc2)c(CO)s1 (stereo not drawn)"
measured_endpoint = "pIC50"
assay_value = "6.00 to 6.30"

[[record]]
molecule = "CCc1nc2ccc(N3CCC(O)CC3)nn2c1N(C)c1nc(-c2ccc(F)cc2)cs1"
measured_endpoint = "pIC50"
assay_value = "< 6.00"

[[record]]
molecule = "CCc1nc2ccc(N3CCCC(CO)C3)nn2c1N(C)c1nc(-c2ccc(F)cc2)cs1 (stereo not drawn)"
measured_endpoint = "pIC50"
assay_value = "< 6.00"

[[record]]
molecule = "CCc1nc2ccc(N3CCC(NC(=O)N4CCCC4)CC3)nn2c1N(C)c1nc(-c2ccc(F)cc2)cs1"
measured_endpoint = "pIC50"
assay_value = "6.00 to 6.30"

[[record]]
molecule = "CCc1nc2ccc(C3CCN(CC(=O)N(C)C)CC3)nn2c1N(C)c1nc(-c2ccc(F)cc2)c(CO)s1"
measured_endpoint = "pIC50"
assay_value = "6.00 to 6.30"


In the following, a different molecule is considered.
Field pIC50 (entry CCc1nc2ccc(N3CC(NCC(=O)N(C)C)C3)nn2c1N(C)c1nc(-c2ccc(F)cc2)cs1 ) reads 6.00 to 6.30

====

- TARGET_SYSTEM: hENPP2 (UniProtKB/SwissProt Sequence ref Q13822) (Homo sapiens (Human), UniProt Q13822)
- ASSAY_PROCEDURE: LPC hENPP2 assay (choline release, LPC as substrate)
- Format: biochemical
pIC50: −log10 of the molar value.
MEASURED_ENDPOINT: pIC50

Would you please look over these solved cases?
[[record]]
molecule = "CCc1nc2ccc(N3CCC(NC(=O)C4CCN(C(=O)OC(C)(C)C)CC4)CC3)nn2c1N(C)c1nc(-c2ccc(F)cc2)cs1 [Cpd 87]"
assay_value = "< 6.00"

[[record]]
molecule = "CCc1nc2ccc(N3CCC(NS(C)(=O)=O)CC3)nn2c1N(C)c1nc(-c2ccc(F)cc2)cs1 [Cpd 83]"
assay_value = "< 6.00"

[[record]]
molecule = "CCc1nc2cnc(N3CCN(CC(=O)N4CCOCC4)CC3)cn2c1N(C)c1nc(-c2ccc(F)cc2)c(C#N)s1 [Cpd 10]"
assay_value = "6.30 to 7.00"

[[record]]
molecule = "CCc1nc2ccc(N3CCN(CC(=O)N4CC(O)C4)CC3)nn2c1N(C)c1nc(-c2ccc(F)cc2)cs1 [Cpd 26]"
assay_value = "6.30 to 7.00"


Turning now to a further molecule:
pIC50 in this record for CCc1nc2ccc(C3CCN(CC(=O)N(C)C)CC3)nn2c1N(C)c1nc(-c2ccc(F)cc2C#N)cs1 [Cpd 208] : 6.30 to 7.00

====

- TARGET_SYSTEM: hENPP2 (UniProtKB/SwissProt Sequence ref Q13822) (Homo sapiens (Human), UniProt Q13822)
- ASSAY_PROCEDURE: LPC hENPP2 assay (choline release, LPC as substrate)
- Assay type: biochemical
We begin with a simple list: items and their reported IC50.

# example entries with known answers
[[record]]
compound = "CCc1nc2ccc(N3CCN(CC(=O)N(C)C)CC3)nn2c1N(C)c1nc(-c2ccc(F)cc2)cs1"
measured_endpoint = "IC50"
assay_value = "100 to 500 nM"

[[record]]
compound = "CCc1nc2ccc(N3CCC(N)C3)nn2c1N(C)c1nc(-c2ccc(F)cc2)cs1 (centres unmarked)"
measured_endpoint = "IC50"
assay_value = "> 1000 nM"

[[record]]
compound = "CCc1nc2ccc(N3CC[C@H](C#N)C3)nn2c1N(C)c1nc(-c2ccc(F)cc2)cs1"
measured_endpoint = "IC50"
assay_value = "> 1000 nM"


Response field IC50 (hENPP2 (UniProtKB/SwissProt Sequence ref Q13822) (Homo sapiens (Human), UniProt Q13822)) for item CCc1nc2cnc(N3CCN(CC(=O)N4CC[C@@H](O)C4)CC3)cn2c1N(C)c1nc(-c2ccc(F)cc2)c(C#N)s1 : 100 to 500 nM

Noted IC50 for CCc1nc2ccc(N3CC(NC(=O)OC(C)(C)C)C3)nn2c1N(C)c1nc(-c2ccc(F)cc2)c(C#N)s1 , tested on hENPP2 (UniProtKB/SwissProt Sequence ref Q13822) (Homo sapiens (Human), UniProt Q13822): 100 to 500 nM

Here CCc1nc2ccc(N3CCC(C(=O)NCCO)CC3)nn2c1N(C)c1nc(-c2ccc(F)cc2)cs1 was tested on hENPP2 (UniProtKB/SwissProt Sequence ref Q13822) (Homo sapiens (Human), UniProt Q13822), and its IC50 came to 500 to 1000 nM

====

- TARGET_SYSTEM: hENPP2 (UniProtKB/SwissProt Sequence ref Q13822) (Homo sapiens (Human), UniProt Q13822)
- ASSAY_PROCEDURE: LPC hENPP2 assay (choline release, LPC as substrate)
- Format: biochemical
Listed next: entries and their corresponding IC50.

Examples with answers:
[[record]]
compound = "CCc1nc2ccc(C3CCN(CC(=O)NC)CC3)nn2c1N(C)c1nc(-c2ccc(F)cc2C#N)c(C)s1 [Cpd 211]"
measured_endpoint = "IC50"
assay_value = "> 1000 nM"

[[record]]
compound = "CCc1nc2ccc(N3CC(NCC(=O)N4CC(O)C4)C3)nn2c1N(C)c1nc(-c2ccc(F)cc2)cs1 [Cpd 155]"
measured_endpoint = "IC50"
assay_value = "100 to 500 nM"

[[record]]
compound = "CCc1nc2ccc(N3CCC4(CCOCC4)C3)nn2c1N(C)c1nc(-c2ccc(F)cc2)c(CO)s1 [Cpd 186]"
measured_endpoint = "IC50"
assay_value = "100 to 500 nM"

[[record]]
compound = "CCc1nc2ccc(N3CC(N)C3)nn2c1N(C)c1nc(-c2ccc(F)cc2)c(C#N)s1 [Cpd 188]"
measured_endpoint = "IC50"
assay_value = "0.01 to 100 nM"


Recorded result, CCc1nc2ccc(N3CCOCC3)nn2c1N(C)c1nc(-c2ccc(F)cc2)cs1 [Cpd 78] , IC50: > 1000 nM

For this compound ( CCc1nc2ccc(N3CCC(C(N)=O)CC3)nn2c1N(C)c1nc(-c2ccc(F)cc2)cs1 [Cpd 98] ), measured IC50 is > 1000 nM

So, CCc1nc2ccc(N3CCC(NC(=O)CO)C3)nn2c1N(C)c1nc(-c2ccc(F)cc2)cs1 (stereo not shown) [Compound 136] ? Its IC50 was > 1000 nM

====

- TARGET_SYSTEM: hENPP2 (UniProtKB/SwissProt Sequence ref Q13822) (Homo sapiens (Human), UniProt Q13822)
- ASSAY_PROCEDURE: LPC hENPP2 assay (choline release, LPC as substrate)
- Assay type: biochemical
- Protocol: The principle of the assay consists in quantifying the released choline with an enzymatic method using choline oxidase and peroxidase. Choline oxydation by choline oxydase releases betaine and peroxide. The latter is quantified in presence of HRP that converts the peroxide detection agent TOOS and 4-aminoantipyrine into quinoneimine dye. The appearance of quinoneimine dye is measured spectrophotometrically at 555 nm and is proportional to the amount of choline released by ENPP2. […]
pIC50: −log10 of the molar value.
The compounds listed here are annotated with their pIC50.

Worked cases, pIC50 given:
[[record]]
compound = "CCc1nc2ccc(N3CCN(CCCO)CC3)nn2c1N(C)c1nc(-c2ccc(F)cc2)cs1 [Cpd 49]"
assay_value = "6.00 to 6.30"

[[record]]
compound = "CCc1nc2ccc(N3CCN(CC(=O)N(C)C)CC3)nn2c1N(C)c1nc(-c2ccc(F)cc2)c(CO)s1 [Cpd 43]"
assay_value = "6.30 to 7.00"

[[record]]
compound = "CCc1nc2ccc(N3CCC(NS(C)(=O)=O)C3)nn2c1N(C)c1nc(-c2ccc(F)cc2)cs1 (centres unmarked) [Cpd 137]"
assay_value = "< 6.00"

[[record]]
compound = "CCc1nc2ccc(N3CCN(CC(=O)N4CCCC4)CC3)nn2c1N(C)c1nc(-c2ccc(F)cc2)cs1 [Cpd 55]"
assay_value = "6.30 to 7.00"

[[record]]
compound = "CN(c1nc(-c2ccc(F)cc2)c(C(=O)C(F)(F)F)s1)c1c(CCC#N)nc2ccc(C3CCN(S(C)(=O)=O)CC3)nn12 [Compound 199]"
assay_value = "< 6.00"


Per the record, CCc1nc2ccc(N3CC(CO)C3)nn2c1N(C)c1nc(-c2ccc(F)cc2)cs1 [Cpd 153] has pIC50 of < 6.00

Sample CCc1nc2ccc(N3CCN(C(=O)OC(C)(C)C)[C@H](CO)C3)nn2c1N(C)c1nc(-c2ccc(F)cc2)cs1 [Cpd 59] ; pIC50 observed: < 6.00

The reported value for CCc1nc2ccc(N3CCC(C(=O)O)CC3)nn2c1N(C)c1nc(-c2ccc(F)cc2)cs1 [Compound 96] in terms of pIC50 is < 6.00

Value of measured pIC50 for the entry CCc1nc2cnc(N3CCN(CC(=O)N(C)C)CC3)cn2c1N(C)c1nc(-c2ccc(F)cc2)c(C#N)s1 [Cpd 5] : 6.30 to 7.00

Record summary for CCc1nc2ccc(N3CCN(CC(=O)NC)CC3)nn2c1N(C)c1nc(-c2ccc(F)cc2)cs1 [Cpd 30] : reported pIC50 = 6.00 to 6.30

// pIC50 value for CCc1nc2cnc(N3CCN(CC(=O)N4CCC4)CC3)cn2c1N(C)c1nc(-c2ccc(F)cc2)cs1 [Cpd 13] : < 6.00

pIC50 in this record for CCc1nc2ccc(C3CCN(CC(=O)N4CC(O)C4)CC3)nn2c1N(C)c1nccc(-c2ccc(F)cc2)n1 [Cpd 215] : 6.30 to 7.00

The compound CCc1nc2ccc(N3CCN(CC4CCCO4)CC3)nn2c1N(C)c1nc(-c2ccc(F)cc2)cs1 (centres unmarked) [Cpd 48] showed pIC50 equal to 6.30 to 7.00

Field pIC50 (entry CCc1nc2ccc(N3CCC(NC(=O)OC(C)(C)C)CC3)nn2c1N(C)c1nc(-c2ccc(F)cc2)cs1 [Cpd 81] ) reads < 6.00

Documented pIC50 of CCc1nc2ccc(N3CCC(N4CCSCC4)C3)nn2c1N(C)c1nc(-c2ccc(F)cc2)cs1 (centres unmarked) [Cpd 131] : < 6.00

// pIC50 value for CCc1nc2ccc(C3CCN(CC(=O)N4CC(O)C4)CC3)nn2c1N(C)c1nc(-c2ccc(F)cc2)c(C#N)s1 [Cpd 212] : 7.00 to 11.00

Form: compound = CCc1nc2ccc(N3CCN(CC(=O)NCCO)CC3)nn2c1N(C)c1nc(-c2ccc(F)cc2)cs1 [Cpd 35] ; pIC50 = < 6.00

Reported pIC50 ( CCc1nc2ccc(N3CCC(N)CC3)nn2c1N(C)c1nc(-c2ccc(F)cc2)cs1 [Cpd 82] ) = < 6.00

What the record says about CCc1nc2ccc(C3CCN(CC(=O)N4CC(O)C4)CC3)nn2c1N(C)c1ccnc(-c2ccc(F)cc2)n1 [Cpd 216] : pIC50 is 6.00 to 6.30

In plain terms, CCc1nc2cnc(N3CCNCC3)cn2c1N(C)c1nc(-c2ccc(F)cc2C#N)cs1 [Cpd 15] has a documented pIC50 of < 6.00
